Reference source: the supplement of paper PMC10065799

- tested_system: c-Src SH2;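 also: peptide library displayed on the E. coli surface as eCPX fusions, selected cells deep-sequenced, score is each peptide's frequency after selection divided by its frequency in the input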
- assay_overview: SH2 binding enrichment of the phosphorylated peptide, bacterial display (enrichment ratio); higher = better substrate or ligand; peptides without Tyr show the background
measured_property: SH2 binding enrichment

Answered examples (3):
>>> recorded_number("ATGLIYIGSHD [AASDH_Y870_T865A]")
0.598
>>> recorded_number("LLKKVYLMLDN [STAT1_Y203_M202V]")
0.566
>>> recorded_number("DKEKWYPLGNS [PIK3C2G_Y1438]")
0.44

[A] DSMQSYDLDFP [UNC13B_Y243_YF]
[B] PLKALYLQQRP [ATM_Y2969]
[C] VHKEGYNKLNQ [ZNF676_Y98]
[D] NMRSTYAKLAA [SEC22B_Y193_H190R]
List by increasing SH2 binding enrichment. Respond with the label ranking, as requested.
C, A, B, D

[A] PESCLYKESWL [IQGAP2_Y630]
[B] TEALYYTDDTA [ADPRS_Y75]
Just curious, which one has the larger SH2 binding enrichment reading, A or B ? // output: label of the selected item
B

[A] VRSNHYDPEED [TJP1_Y1346]
[B] TFEYRYLEDRD [CNOT3_Y746]
Just curious, which one has the larger SH2 binding enrichment reading, A or B ? // output: label of the selected item
B

###

- tested_system: FGFR1 (UniProt P11362)
- Sequence (P11362 whole entry, looked up): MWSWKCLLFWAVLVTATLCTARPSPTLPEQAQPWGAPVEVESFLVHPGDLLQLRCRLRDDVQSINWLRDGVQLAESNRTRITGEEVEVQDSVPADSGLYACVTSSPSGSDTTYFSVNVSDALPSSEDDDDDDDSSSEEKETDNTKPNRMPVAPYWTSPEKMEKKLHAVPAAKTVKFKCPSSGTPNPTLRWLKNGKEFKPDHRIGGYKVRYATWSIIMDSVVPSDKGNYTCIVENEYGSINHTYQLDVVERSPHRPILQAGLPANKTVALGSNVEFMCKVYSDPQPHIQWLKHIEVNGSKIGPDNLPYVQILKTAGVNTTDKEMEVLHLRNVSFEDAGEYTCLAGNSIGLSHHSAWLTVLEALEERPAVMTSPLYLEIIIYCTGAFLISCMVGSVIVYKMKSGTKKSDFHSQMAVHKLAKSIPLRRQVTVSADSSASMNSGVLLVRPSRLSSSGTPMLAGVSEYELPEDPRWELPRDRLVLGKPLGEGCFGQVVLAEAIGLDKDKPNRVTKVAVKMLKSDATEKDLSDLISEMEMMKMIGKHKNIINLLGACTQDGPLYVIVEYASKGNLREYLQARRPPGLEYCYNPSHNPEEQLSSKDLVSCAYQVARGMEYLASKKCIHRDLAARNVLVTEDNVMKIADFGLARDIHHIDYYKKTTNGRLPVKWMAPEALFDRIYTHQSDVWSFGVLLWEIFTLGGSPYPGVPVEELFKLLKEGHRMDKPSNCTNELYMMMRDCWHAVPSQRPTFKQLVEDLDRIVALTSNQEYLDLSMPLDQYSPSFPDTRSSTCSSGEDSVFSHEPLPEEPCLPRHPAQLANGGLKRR
- assay_overview: phosphorylation enrichment, bacterial display (enrichment ratio); higher = better substrate or ligand; peptides without Tyr show the background
measured_property: phosphorylation enrichment
Field format: numeric only.

>>> recorded_number("AGQERYRAITS [RAB11B_Y73]")
0.613
>>> recorded_number("FSGQVYRQRRK [TH_Y230_D227G]")
0.546
>>> recorded_number("AVEDQYFCVDC [FHL1_Y207_YF]")
5.2
>>> recorded_number("GIVEDYRPRFF [ACVRL1_Y421_P424R_YF]")
0.467
>>> recorded_number("KPGLKYVTFGN [GALNTL5_Y404_YF]")
0.412

Identify measured phosphorylation enrichment corresponding to VMSGPYELKAL [IL1B_Y140]
0.419

Identify measured phosphorylation enrichment corresponding to CGQDPCIRELG [UROS_Y19_Y19C]
0.581

Identify measured phosphorylation enrichment corresponding to ATGLIYIGSHD [AASDH_Y870_T865A]
0.427

Identify measured phosphorylation enrichment corresponding to PSDLLYILDIQ [ITGA2B_Y845]
1.35

###

- tested_system: Fyn (UniProt P06241)
- Sequence (P06241 whole entry, looked up): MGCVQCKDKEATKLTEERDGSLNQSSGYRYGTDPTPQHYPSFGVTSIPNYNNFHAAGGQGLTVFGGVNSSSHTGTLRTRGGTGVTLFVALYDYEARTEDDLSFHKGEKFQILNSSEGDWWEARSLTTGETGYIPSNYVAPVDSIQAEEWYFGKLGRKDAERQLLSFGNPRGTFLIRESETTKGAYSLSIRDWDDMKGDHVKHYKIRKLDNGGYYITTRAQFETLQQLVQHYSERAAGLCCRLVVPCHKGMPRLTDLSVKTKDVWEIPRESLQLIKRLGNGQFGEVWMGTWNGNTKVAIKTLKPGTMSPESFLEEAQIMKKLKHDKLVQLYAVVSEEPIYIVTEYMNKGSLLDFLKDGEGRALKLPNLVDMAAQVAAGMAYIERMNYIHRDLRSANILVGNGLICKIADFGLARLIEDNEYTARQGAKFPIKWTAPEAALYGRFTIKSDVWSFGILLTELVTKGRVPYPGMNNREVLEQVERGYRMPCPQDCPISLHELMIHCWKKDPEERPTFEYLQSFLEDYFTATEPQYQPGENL
- assay_overview: phosphorylation enrichment, bacterial display (enrichment ratio); higher = better substrate or ligand; peptides without Tyr show the background
The following sequences are listed with their measured phosphorylation enrichment values.
Field format: numeric only.

>>> recorded_number("GDFFRSLAEVA [YWHAG_Y133_Y133S_YF]")
0.464
>>> recorded_number("GLPQTYCVSGP [DYSF_Y1684]")
0.629
>>> recorded_number("HFEDGYPGGSD [CTNND1_Y221_YF]")
0.74
>>> recorded_number("LRAGVYHEKDQ [DNM2_Y626_P627H]")
0.608

Query sequence follows.
Identify measured phosphorylation enrichment corresponding to CTTIHYNYTCN [TP53_Y234_M237T]
0.445

###

- tested_system: Hck (UniProt P08631)
- Sequence (P08631 whole entry, looked up): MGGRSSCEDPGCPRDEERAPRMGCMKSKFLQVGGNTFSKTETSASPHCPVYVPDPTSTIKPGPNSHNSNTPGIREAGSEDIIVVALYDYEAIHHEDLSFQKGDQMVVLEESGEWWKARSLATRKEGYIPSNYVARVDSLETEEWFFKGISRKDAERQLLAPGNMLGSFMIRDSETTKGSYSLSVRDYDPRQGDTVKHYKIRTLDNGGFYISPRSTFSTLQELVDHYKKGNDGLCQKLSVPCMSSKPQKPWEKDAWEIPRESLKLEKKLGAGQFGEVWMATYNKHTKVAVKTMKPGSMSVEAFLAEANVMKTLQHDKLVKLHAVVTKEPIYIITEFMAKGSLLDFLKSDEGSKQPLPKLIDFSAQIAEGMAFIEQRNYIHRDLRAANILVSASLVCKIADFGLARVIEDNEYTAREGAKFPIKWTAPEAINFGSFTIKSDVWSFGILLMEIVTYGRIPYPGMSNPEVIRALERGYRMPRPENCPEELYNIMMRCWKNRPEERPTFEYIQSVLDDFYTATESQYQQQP
- assay_overview: phosphorylation enrichment, bacterial display (enrichment ratio); higher = better substrate or ligand; peptides without Tyr show the background
measured_property: phosphorylation enrichment
Field format: numeric only.

Answered examples (5):
>>> recorded_number("KRGIDYILWHM [FRMD1_Y225_R228W]")
0.536
>>> recorded_number("GLVFLYMEKNQ [PRELP_Y156]")
0.337
>>> recorded_number("SAPDSYIGIGN [SLC38A4_Y27]")
0.495
>>> recorded_number("PEYVVYKPQME [CCRL2_Y170_F167Y]")
6.69
>>> recorded_number("DKNSSYFADWL [TUBB8_Y340]")
0.492

Identify measured phosphorylation enrichment corresponding to TKDTIYKQPMF [GBA_Y451_F450I]
0.8

Identify measured phosphorylation enrichment corresponding to RYFTTYDTNGR [CLCA1_Y665]
0.943

Identify measured phosphorylation enrichment corresponding to KNCFKYYMSDD [ATRX_Y203]
0.595
